TGT: HIV-1LAI envelope gp120 (Human immunodeficiency virus type 1 group M subtype B)
Type: binding
CONDITION SET: Panel B, 15-mers and 18-mers of CD4; empty control 575
Lab note: compare COUNTS of radiolabeled gp120 retained with 700 counts, writing yes if less and no if equal or more.

>  <SEQUENCE CODE>
NFPLIIKNLKIEDSD

>  <GROUP>
yes

$$$$
>  <SEQUENCE CODE>
GNFPLIIKNLKIEDS

>  <GROUP>
yes

$$$$
>  <SEQUENCE CODE>
KIEDSDTYICEVEDQ

>  <GROUP>
no

$$$$
>  <SEQUENCE CODE>
LVFGLTANSDTHLLQ

>  <GROUP>
yes

$$$$
>  <SEQUENCE CODE>
LLVFGLTANSDTHLLQGQ

>  <GROUP>
yes

$$$$
>  <SEQUENCE CODE>
GLTANSDTHLLQGQS

>  <GROUP>
yes

$$$$
>  <SEQUENCE CODE>
LKIEDSDTYICEVEDQKE

>  <GROUP>
no

$$$$
>  <SEQUENCE CODE>
GNFPLIIKNLKIEDSDTY

>  <GROUP>
yes

$$$$
>  <SEQUENCE CODE>
NFPLIIKNLKIEDSDTYI

>  <GROUP>
yes

$$$$
>  <SEQUENCE CODE>
GLTANSDTHLLQGQSLTL

>  <GROUP>
yes

$$$$
>  <SEQUENCE CODE>
SDTHLLQGQSLTLTL

>  <GROUP>
no

$$$$
>  <SEQUENCE CODE>
EDQKEEVQLLVFGLTANS

>  <GROUP>
no

$$$$
>  <SEQUENCE CODE>
DQKEEVQLLVFGLTA

>  <GROUP>
no

$$$$
>  <SEQUENCE CODE>
DTHLLQGQSLTLTLE

>  <GROUP>
no

$$$$
>  <SEQUENCE CODE>
KIEDSDTYICEVEDQKEE

>  <GROUP>
no

$$$$
>  <SEQUENCE CODE>
VFGLTANSDTHLLQGQSL

>  <GROUP>
yes

$$$$
>  <SEQUENCE CODE>
LTANSDTHLLQGQSLTLT

>  <GROUP>
yes

$$$$

###

TGT: HIV-1LAI envelope gp120 (Human immunodeficiency virus type 1 group M subtype B)
Type: binding
CONDITION SET: CXCR4 18-mer scan; empty control 412
Collected radioactive counts recorded in twenty minutes values appear next to each entry.
OUTCOME MEASURE: radioactive counts recorded in twenty minutes (counts)

>  <SEQUENCE CODE>
IFANVSEADDRYICDRFY

>  <OBSERVED VALUE>
679

$$$$
>  <SEQUENCE CODE>
FWAVDAVANWYFGNFLCK [CXCR4 segment 93-110]

>  <OBSERVED VALUE>
478

$$$$
>  <SEQUENCE CODE>
LILAFISLDRYLAIVHAT

>  <OBSERVED VALUE>
519

$$$$
>  <SEQUENCE CODE>
YSIIFLTGIVGNGLVILV [CXCR4 segment 45-62]

>  <OBSERVED VALUE>
535

$$$$
>  <SEQUENCE CODE>
TVNLYSSVLILAFISLDR

>  <OBSERVED VALUE>
654

$$$$
>  <SEQUENCE CODE>
IDSFILLEIIKQGCEFEN [CXCR4 segment 261-278]

>  <OBSERVED VALUE>
3884

$$$$
>  <SEQUENCE CODE>
IVILSCYCIIISKLSHSK

>  <OBSERVED VALUE>
689

$$$$
>  <SEQUENCE CODE>
SRGSSLKILSKGKRGGHS [CXCR4 segment 321-338]

>  <OBSERVED VALUE>
581

$$$$
>  <SEQUENCE CODE>
IGISIDSFILLEIIKQGC [CXCR4 segment 257-274]

>  <OBSERVED VALUE>
1146

$$$$
>  <SEQUENCE CODE>
WIPALLLTIPDFIFANVS

>  <OBSERVED VALUE>
594

$$$$
>  <SEQUENCE CODE>
AQNALTSVSRGSSLKILS [CXCR4 segment 313-330]

>  <OBSERVED VALUE>
559

$$$$
>  <SEQUENCE CODE>
YSSVLILAFISLDRYLAI

>  <OBSERVED VALUE>
569

$$$$
>  <SEQUENCE CODE>
SCYCIIISKLSHSKGHQK

>  <OBSERVED VALUE>
671

$$$$
>  <SEQUENCE CODE>
CKAVHVIYTVNLYSSVLI

>  <OBSERVED VALUE>
655

$$$$
